Can you tell me IC50 for the items I'm about to list?
- Tested on: A-431
- Test: Cytotoxicity against human A431 cells after 96 hrs by SRB assay
- Type: functional, cell-based
- Condition Label: A-431, 96 h
# output: bare number, implied unit µM

Q: For A-431, provide IC50 of CCOC(=O)[C@@]1(C)CC[C@]2(C)CC[C@]3(C)C(=CC(=O)[C@@H]4[C@@]5(C)CC[C@H](OC(=O)[C@H](C)N)C(C)(C)[C@@H]5CC[C@]43C)[C@@H]2C1 please.
A: 2.27

Q: For A-431, provide IC50 of CC(C)OC(=O)[C@@]1(C)CC[C@]2(C)CC[C@]3(C)C(=CC(=O)[C@@H]4[C@@]5(C)CC[C@H](OC(=O)[C@H](C)N)C(C)(C)[C@@H]5CC[C@]43C)[C@@H]2C1 please.
A: 3.49

Q: For A-431, provide IC50 of COC(=O)[C@@]1(C)CC[C@]2(C)CC[C@]3(C)C(=CC(=O)[C@@H]4[C@@]5(C)CC[C@H](OC(=O)[C@@H](C)N)C(C)(C)[C@@H]5CC[C@]43C)[C@@H]2C1 please.
A: 2.36

Q: For A-431, provide IC50 of CC1(C)[C@@H](O)CC[C@]2(C)[C@H]3C(=O)C=C4[C@@H]5C[C@@](C)(C(=O)OCc6ccccc6)CC[C@]5(C)CC[C@@]4(C)[C@]3(C)CC[C@@H]12 please.
A: 23.6

Q: For A-431, provide IC50 of CC1(C)[C@@H](O)CC[C@]2(C)[C@H]3C(=O)C=C4[C@@H]5C[C@@](C)(C(=O)O)CC[C@]5(C)CC[C@@]4(C)[C@]3(C)CC[C@@H]12 please.
A: 79.6

----------
Can you tell me IC50 for the items I'm about to list?
- System: A549
- Test: Cytotoxicity against human A549 cells after 96 hrs by SRB assay
- Type: functional, cell-based
- Condition Label: Homo sapiens, A549, 96 h
# output: bare number, implied unit µM

Q: What does the data say about its IC50? Entry: CC1(C)[C@@H](O)CC[C@]2(C)[C@H]3C(=O)C=C4[C@@H]5C[C@@](C)(C(=O)OCc6ccccc6)CC[C@]5(C)CC[C@@]4(C)[C@]3(C)CC[C@@H]12
A: 6.15

Q: What does the data say about its IC50? Entry: C[C@H](N)C(=O)O[C@H]1CC[C@]2(C)[C@H]3C(=O)C=C4[C@@H]5C[C@@](C)(C(=O)OCc6ccccc6)CC[C@]5(C)CC[C@@]4(C)[C@]3(C)CC[C@H]2C1(C)C
A: 3.51

Q: What does the data say about its IC50? Entry: CC(C)OC(=O)[C@@]1(C)CC[C@]2(C)CC[C@]3(C)C(=CC(=O)[C@@H]4[C@@]5(C)CC[C@H](OC(=O)[C@H](C)N)C(C)(C)[C@@H]5CC[C@]43C)[C@@H]2C1
A: 3.43

Q: What does the data say about its IC50? Entry: CC1(C)[C@@H](OC(=O)CCN)CC[C@]2(C)[C@H]3C(=O)C=C4[C@@H]5C[C@@](C)(C(=O)OCc6ccccc6)CC[C@]5(C)CC[C@@]4(C)[C@]3(C)CC[C@@H]12
A: 2.76

----------
- Tested on: A-431
- Test: Cytotoxicity against human A431 cells after 96 hrs by SRB assay
- Assay type: functional, cell-based
- Condition Label: A-431, 96 h
Checkbox rule: IC50 lower than 3 µM = Y; IC50 not lower than 3 µM = N.

Q: For this molecule, is IC50 lower than 3 µM? CC(C)OC(=O)[C@@]1(C)CC[C@]2(C)CC[C@]3(C)C(=CC(=O)[C@@H]4[C@@]5(C)CC[C@H](O)C(C)(C)[C@@H]5CC[C@]43C)[C@@H]2C1
A: N

Q: For this molecule, is IC50 lower than 3 µM? COC(=O)[C@@]1(C)CC[C@]2(C)CC[C@]3(C)C(=CC(=O)[C@@H]4[C@@]5(C)CC[C@H](O)C(C)(C)[C@@H]5CC[C@]43C)[C@@H]2C1
A: N

Q: For this molecule, is IC50 lower than 3 µM? CCOC(=O)[C@@]1(C)CC[C@]2(C)CC[C@]3(C)C(=CC(=O)[C@@H]4[C@@]5(C)CC[C@H](O)C(C)(C)[C@@H]5CC[C@]43C)[C@@H]2C1
A: N

Q: For this molecule, is IC50 lower than 3 µM? CC(C)OC(=O)[C@@]1(C)CC[C@]2(C)CC[C@]3(C)C(=CC(=O)[C@@H]4[C@@]5(C)CC[C@H](OC(=O)[C@@H](C)N)C(C)(C)[C@@H]5CC[C@]43C)[C@@H]2C1
A: N

Q: For this molecule, is IC50 lower than 3 µM? CCOC(=O)[C@@]1(C)CC[C@]2(C)CC[C@]3(C)C(=CC(=O)[C@@H]4[C@@]5(C)CC[C@H](OC(=O)[C@@H](C)N)C(C)(C)[C@@H]5CC[C@]43C)[C@@H]2C1
A: Y

Q: For this molecule, is IC50 lower than 3 µM? COC(=O)[C@@]1(C)CC[C@]2(C)CC[C@]3(C)C(=CC(=O)[C@@H]4[C@@]5(C)CC[C@H](OC(=O)[C@H](C)N)C(C)(C)[C@@H]5CC[C@]43C)[C@@H]2C1
A: N

Reference for the values: ChEMBL document CHEMBL1268974
